pIC50 listing for selected molecules.
- Test system: 889142-216-R-J1-PDC complex spheroid viability
- Experimental details: Anticancer human tumor 889142-216-R-J1-PDC patient-derived bladder carcinoma cell line growth inhibition [POLQ]
- Condition description: curve of first compound; second compound 0.316 µM
pIC50: −log10 of the molar value.

Sample records with pIC50:
* Cn1ncnc1[C@H]1c2n[nH]c(=O)c3cc(F)cc(c23)N[C@@H]1c1ccc(F)cc1 + Nc1ccc(C#CCN(C(=O)Cc2ncc(C(F)(F)F)cc2C(F)(F)F)c2ccc(F)cc2)nn1 | < 7.00
* Cn1ncnc1[C@H]1c2n[nH]c(=O)c3cc(F)cc(c23)N[C@@H]1c1ccc(F)cc1 + COC1C(OC(N)=O)C(O)C(Oc2ccc3c(O)c(NC(=O)c4ccc(O)c(CC=C(C)C)c4)c(=O)oc3c2C)OC1(C)C | < 7.00

Query: pIC50; subject: CC[C@@]1(O)C(=O)OCc2c1cc1n(c2=O)Cc2cc3c(CN(C)C)c(O)ccc3nc2-1 + Nc1ccc(C#CCN(C(=O)Cc2ncc(C(F)(F)F)cc2C(F)(F)F)c2ccc(F)cc2)nn1
< 7.00

###

viability, T/C listing for selected compounds.
- System: 889142-216-R-J1-PDC complex spheroid viability
- Experimental details: Anticancer human tumor 889142-216-R-J1-PDC cell line growth inhibition [POLQ];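 further: spheroids exposed to compounds for seven days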;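 on viability, T/C: 100% = DMSO vehicle control viability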
- Condition description: second compound 3.16 µM; first compound 10 µM; stronger effect = lower value
Numeric only. Scale: %

- COc1ccc([C@@H](O)c2cc(-c3ncnc4cc(N5CCOCC5)ccc34)c(F)cc2Cl)nn1 + Nc1ccc(C#CCN(C(=O)Cc2ncc(C(F)(F)F)cc2C(F)(F)F)c2ccc(F)cc2)nn1: 39.3
- COc1ccc([C@@H](O)c2cc(-c3ncnc4cc(N5CCOCC5)ccc34)c(F)cc2Cl)nn1 + Cc1cccc(N(C)C(=O)C2C(O)CCN2c2nc(C)cc(C(F)(F)F)c2C#N)c1: 35.2
- CCc1cc2c(N3CCc4c(cc(Cn5ccnc5)cc4-c4cn(C)nc4C(F)(F)F)C3=O)cc(C)nc2c(OC)n1 + COC1C(OC(N)=O)C(O)C(Oc2ccc3c(O)c(NC(=O)c4ccc(O)c(CC=C(C)C)c4)c(=O)oc3c2C)OC1(C)C: 55.1
- COc1cc(C2c3cc4c(cc3C(OC3OC5COC(C)OC5C(O)C3O)C3COC(=O)C23)OCO4)cc(OC)c1O (stereo not drawn) + Nc1ccc(C#CCN(C(=O)Cc2ncc(C(F)(F)F)cc2C(F)(F)F)c2ccc(F)cc2)nn1: 61
- COc1ccc([C@@H](O)c2cc(-c3ncnc4cc(N5CCOCC5)ccc34)c(F)cc2Cl)nn1 + COC1C(OC(N)=O)C(O)C(Oc2ccc3c(O)c(NC(=O)c4ccc(O)c(CC=C(C)C)c4)c(=O)oc3c2C)OC1(C)C: 39.8
- Nc1ccn(C2OC(CO)C(O)C2(F)F)c(=O)n1 (stereo not drawn) + Nc1ccc(C#CCN(C(=O)Cc2ncc(C(F)(F)F)cc2C(F)(F)F)c2ccc(F)cc2)nn1: 39.7
- Nc1ccn(C2OC(CO)C(O)C2(F)F)c(=O)n1 (stereo not drawn) + COC1C(OC(N)=O)C(O)C(Oc2ccc3c(O)c(NC(=O)c4ccc(O)c(CC=C(C)C)c4)c(=O)oc3c2C)OC1(C)C: 31.4

Alright, here's another compound for you.
Query: viability, T/C; subject: CNCc1ccc(-c2[nH]c3cc(F)cc4c3c2CCNC4=O)cc1 + Cc1cccc(N(C)C(=O)C2C(O)CCN2c2nc(C)cc(C(F)(F)F)c2C#N)c1
63.9

###

- System: 889142-216-R-J1-PDC complex spheroid viability
- Experimental details: Anticancer human tumor 889142-216-R-J1-PDC cell line growth inhibition [POLQ];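 further: spheroids exposed to compounds for seven days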;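 on viability, T/C: 100% = DMSO vehicle control viability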
- Condition description: second compound 0.0316 µM; first compound 0.316 µM; stronger effect = lower value
Property: viability, T/C (%)
Numeric only. Scale: %

* COc1cc2cc(C(=O)CCC(=O)O)sc2cc1OC + COC1C(OC(N)=O)C(O)C(Oc2ccc3c(O)c(NC(=O)c4ccc(O)c(CC=C(C)C)c4)c(=O)oc3c2C)OC1(C)C | 82.4
* COc1cc2cc(C(=O)CCC(=O)O)sc2cc1OC + Cc1cccc(N(C)C(=O)C2C(O)CCN2c2nc(C)cc(C(F)(F)F)c2C#N)c1 | 89.6
* O=C(Nc1ccc(O)c(NS(=O)(=O)c2ccc(F)cc2)c1)c1ccc(-c2ccccc2)cc1 + Cc1cccc(N(C)C(=O)C2C(O)CCN2c2nc(C)cc(C(F)(F)F)c2C#N)c1 | 112
* CC1COCCN1c1cc(C2(O)CC3CCC(C2)O3)c2cnn(-c3ccn[nH]3)c2n1 (configuration not stated) + Nc1ccc(C#CCN(C(=O)Cc2ncc(C(F)(F)F)cc2C(F)(F)F)c2ccc(F)cc2)nn1 | 39.1
* CCc1cc2c(N3CCc4c(cc(Cn5ccnc5)cc4-c4cn(C)nc4C(F)(F)F)C3=O)cc(C)nc2c(OC)n1 + Nc1ccc(C#CCN(C(=O)Cc2ncc(C(F)(F)F)cc2C(F)(F)F)c2ccc(F)cc2)nn1 | 109
* O=c1[nH]cc(F)c(=O)[nH]1 + Nc1ccc(C#CCN(C(=O)Cc2ncc(C(F)(F)F)cc2C(F)(F)F)c2ccc(F)cc2)nn1 | 90
* COc1cc2cc(C(=O)CCC(=O)O)sc2cc1OC + Nc1ccc(C#CCN(C(=O)Cc2ncc(C(F)(F)F)cc2C(F)(F)F)c2ccc(F)cc2)nn1 | 96.6
* C=CCn1c(=O)c2cnc(Nc3ccc(N4CCN(C)CC4)cc3)nc2n1-c1cccc(C(C)(C)O)n1 + Cc1cccc(N(C)C(=O)C2C(O)CCN2c2nc(C)cc(C(F)(F)F)c2C#N)c1 | 90
* Nc1ccn(C2OC(CO)C(O)C2(F)F)c(=O)n1 (configuration not stated) + COC1C(OC(N)=O)C(O)C(Oc2ccc3c(O)c(NC(=O)c4ccc(O)c(CC=C(C)C)c4)c(=O)oc3c2C)OC1(C)C | 51.2
* COc1cccc(OCCCN)c1-c1cc(Nc2cnc(C#N)cn2)n[nH]1 + COC1C(OC(N)=O)C(O)C(Oc2ccc3c(O)c(NC(=O)c4ccc(O)c(CC=C(C)C)c4)c(=O)oc3c2C)OC1(C)C | 34.4

Query: viability, T/C; subject: CC1COCCN1c1cc(-c2ccnn2C)c2ccnc(-c3ccn[nH]3)c2n1 (configuration not stated) + Nc1ccc(C#CCN(C(=O)Cc2ncc(C(F)(F)F)cc2C(F)(F)F)c2ccc(F)cc2)nn1
53.7

Query: viability, T/C; subject: CCc1cc2c(N3CCc4c(cc(Cn5ccnc5)cc4-c4cn(C)nc4C(F)(F)F)C3=O)cc(C)nc2c(OC)n1 + Cc1cccc(N(C)C(=O)C2C(O)CCN2c2nc(C)cc(C(F)(F)F)c2C#N)c1
121

###

viability, T/C listing for selected compounds.
- Tested on: 889142-216-R-J1-PDC complex spheroid viability
- Experimental details: Anticancer human tumor 889142-216-R-J1-PDC cell line growth inhibition [POLQ];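 further: spheroids exposed to compounds for seven days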;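 on viability, T/C: 100% = DMSO vehicle control viability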
- Condition description: second compound 3.16 µM; first compound 0.0316 µM; stronger effect = lower value
Numeric only. Scale: %

Sample records with viability, T/C:
- COc1cc2cc(C(=O)CCC(=O)O)sc2cc1OC + COC1C(OC(N)=O)C(O)C(Oc2ccc3c(O)c(NC(=O)c4ccc(O)c(CC=C(C)C)c4)c(=O)oc3c2C)OC1(C)C: 91.2
- O=C(Nc1ccc(O)c(NS(=O)(=O)c2ccc(F)cc2)c1)c1ccc(-c2ccccc2)cc1 + Cc1cccc(N(C)C(=O)C2C(O)CCN2c2nc(C)cc(C(F)(F)F)c2C#N)c1: 87.8
- CC1COCCN1c1cc(C2(O)CC3CCC(C2)O3)c2cnn(-c3ccn[nH]3)c2n1 (stereo unspecified) + Cc1cccc(N(C)C(=O)C2C(O)CCN2c2nc(C)cc(C(F)(F)F)c2C#N)c1: 61.5
- COc1cccc2c1C(=O)c1c(O)c3c(c(O)c1C2=O)CC(O)(C(=O)CO)CC3OC1CC(N)C(O)C(C)O1 (stereo unspecified) + Cc1cccc(N(C)C(=O)C2C(O)CCN2c2nc(C)cc(C(F)(F)F)c2C#N)c1: 61.8

Query: viability, T/C; subject: CC1COCCN1c1cc(C2(S(C)(=N)=O)CC2)nc(-c2ccnc3[nH]ccc23)n1 (stereo unspecified) + Cc1cccc(N(C)C(=O)C2C(O)CCN2c2nc(C)cc(C(F)(F)F)c2C#N)c1
92.4

Query: viability, T/C; subject: CC[C@@]1(O)C(=O)OCc2c1cc1n(c2=O)Cc2cc3c(CN(C)C)c(O)ccc3nc2-1 + Cc1cccc(N(C)C(=O)C2C(O)CCN2c2nc(C)cc(C(F)(F)F)c2C#N)c1
59.2

###

IC50 listing for selected compounds.
- Tested on: 889142-216-R-J1-PDC complex spheroid viability
- Experimental details: Anticancer human tumor 889142-216-R-J1-PDC cell line growth inhibition [POLQ];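 further: spheroids exposed to compounds for seven days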
- Condition description: curve of first compound; second compound 0.1 µM

Sample records with IC50:
• C=CC(=O)N1CCN(c2nc(=O)n(-c3c(C)ccnc3C(C)C)c3nc(-c4c(O)cccc4F)c(F)cc23)C(C)C1 (stereo unspecified) + Cc1cccc(N(C)C(=O)C2C(O)CCN2c2nc(C)cc(C(F)(F)F)c2C#N)c1 = > 10 µM
• CCc1cc2c(N3CCc4c(cc(Cn5ccnc5)cc4-c4cn(C)nc4C(F)(F)F)C3=O)ccnc2c(OC)n1 + COC1C(OC(N)=O)C(O)C(Oc2ccc3c(O)c(NC(=O)c4ccc(O)c(CC=C(C)C)c4)c(=O)oc3c2C)OC1(C)C = > 10 µM
• CCc1cc2c(N3CCc4c(cc(Cn5ccnc5)cc4-c4cn(C)nc4C(F)(F)F)C3=O)cc(C)nc2c(OC)n1 + COC1C(OC(N)=O)C(O)C(Oc2ccc3c(O)c(NC(=O)c4ccc(O)c(CC=C(C)C)c4)c(=O)oc3c2C)OC1(C)C = > 10 µM
• C=CCn1c(=O)c2cnc(Nc3ccc(N4CCN(C)CC4)cc3)nc2n1-c1cccc(C(C)(C)O)n1 + COC1C(OC(N)=O)C(O)C(Oc2ccc3c(O)c(NC(=O)c4ccc(O)c(CC=C(C)C)c4)c(=O)oc3c2C)OC1(C)C = > 1 µM
• O=C(c1cc(Cc2n[nH]c(=O)c3ccccc23)ccc1F)N1CCN(C(=O)C2CC2)CC1 + Cc1cccc(N(C)C(=O)C2C(O)CCN2c2nc(C)cc(C(F)(F)F)c2C#N)c1 = > 10 µM

Alright, here's another compound for you.
Query: IC50; subject: Cn1ncnc1[C@H]1c2n[nH]c(=O)c3cc(F)cc(c23)N[C@@H]1c1ccc(F)cc1 + COC1C(OC(N)=O)C(O)C(Oc2ccc3c(O)c(NC(=O)c4ccc(O)c(CC=C(C)C)c4)c(=O)oc3c2C)OC1(C)C
> 0.1 µM
